These data points were gathered from patent US20120172293A1.

Kindly supply the reported GBA EC50 Ratio (vs PYY(3-36)), [35S]GTPγS values for the records listed here.
system: T1, human Y2 receptor (human, UniProt P49146 1-381)
T1 sequence (looked up): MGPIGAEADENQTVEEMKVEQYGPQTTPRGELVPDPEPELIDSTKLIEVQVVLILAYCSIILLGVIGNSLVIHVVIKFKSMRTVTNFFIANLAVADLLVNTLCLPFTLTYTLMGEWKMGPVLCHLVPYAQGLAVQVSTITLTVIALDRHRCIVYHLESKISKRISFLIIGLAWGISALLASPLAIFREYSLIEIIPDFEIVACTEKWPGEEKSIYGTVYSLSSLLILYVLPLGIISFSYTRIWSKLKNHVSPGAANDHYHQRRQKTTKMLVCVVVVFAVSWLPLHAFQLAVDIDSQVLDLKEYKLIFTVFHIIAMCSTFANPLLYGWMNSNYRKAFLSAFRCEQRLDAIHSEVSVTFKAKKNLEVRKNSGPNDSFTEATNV
assay.procedure: cell-based or functional assay
Non-standard residues stand in square brackets, D forms with d. No end group written: not given here. Cha = N[C@@H](CC1CCCCC1)C(=O)O; Phg = N[C@H](C(=O)O)c1ccccc1; 4Amb = NCc1ccc(C(=O)O)cc1; Aib = CC(C)(N)C(=O)O
Give bare numbers, in ratio.

1. Ac-S[dP]RH[Cha][Cha]NT[Aib]TRQR[Cha]-NH2 (SMILES CC(=O)N[C@@H](CO)C(=O)N1CCC[C@@H]1C(=O)N[C@@H](CCCNC(=N)N)C(=O)N[C@@H](Cc1c[nH]cn1)C(=O)N[C@@H](CC1CCCCC1)C(=O)N[C@@H](CC1CCCCC1)C(=O)N[C@@H](CC(N)=O)C(=O)N[C@H](C(=O)NC(C)(C)C(=O)N[C@H](C(=O)N[C@@H](CCCNC(=N)N)C(=O)N[C@@H](CCC(N)=O)C(=O)N[C@@H](CCCNC(=N)N)C(=O)N[C@@H](CC1CCCCC1)C(N)=O)[C@@H](C)O)[C@@H](C)O, also called compound No. 132) [Ac-[D-Pro24, Cha27,28,36, Thr30, Aib31]-PYY(23-36)]	3.1

Now consider the entry below.
Answer with reported GBA EC50 Ratio (vs PYY(3-36)), [35S]GTPγS of [4Amb]RAYINL[Phg]TRQRY-NH2 (N-terminus assumed; SMILES CC[C@H](C)[C@H](NC(=O)[C@H](Cc1ccc(O)cc1)NC(=O)[C@H](C)NC(=O)[C@H](CCCNC(=N)N)NC(=O)c1ccc(CN)cc1)C(=O)N[C@@H](CC(N)=O)C(=O)N[C@@H](CC(C)C)C(=O)N[C@H](C(=O)N[C@H](C(=O)N[C@@H](CCCNC(=N)N)C(=O)N[C@@H](CCC(N)=O)C(=O)N[C@@H](CCCNC(=N)N)C(=O)N[C@@H](Cc1ccc(O)cc1)C(N)=O)[C@@H](C)O)c1ccccc1, also called compound No. 40) [4-Aminomethylbenzoyl-[Ala26, Ile28, Phg31]-PYY(25-36)]
27
